Target: T1, human glucose-dependent insulinotropic polypeptide receptor (GIPR), expressed on CHO-K1 cells (human, UniProt P48546 22-466)
T1 sequence (looked up): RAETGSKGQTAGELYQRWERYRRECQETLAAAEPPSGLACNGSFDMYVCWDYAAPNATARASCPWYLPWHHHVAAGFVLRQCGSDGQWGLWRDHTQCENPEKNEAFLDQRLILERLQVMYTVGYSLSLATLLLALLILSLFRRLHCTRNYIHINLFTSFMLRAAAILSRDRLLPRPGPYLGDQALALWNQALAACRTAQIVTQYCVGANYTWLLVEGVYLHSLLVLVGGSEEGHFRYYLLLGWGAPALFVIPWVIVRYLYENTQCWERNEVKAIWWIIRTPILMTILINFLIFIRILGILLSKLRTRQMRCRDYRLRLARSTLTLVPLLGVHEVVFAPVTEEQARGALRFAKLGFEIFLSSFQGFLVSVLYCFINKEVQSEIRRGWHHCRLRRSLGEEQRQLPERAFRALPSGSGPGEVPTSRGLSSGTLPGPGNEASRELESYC
Assay: cell-based or functional assay
Numbered stars: 1 amine (or outer) side, 2 acyl side, 3 side chain; on linkers, the order of the positions; unused ones are H or OH. Square brackets hold non-standard residues; d marks the D form. Primed or numbered codes have the meaning given here. Side chains are listed from the residue outwards. Ends that are not written are not given here. * marks the point of attachment. C18″ = C18 fatty acid moiety (of 2OEG-γGlu-C18, K*); γGlu = O=C(O)[C@H](CCC(=O)[*:2])N[*:1]; AEEA = NCCOCCOCC(=O)O; Aib = CC(C)(N)C(=O)O
Quantity Name: Relative % to native ligand

Please review the following examples before continuing.
Query block: Consider the binder Y[Aib]QGTFTSDYSKLLDYMMQRDFVQWLLEGGPSSGAPPPSC-NH2 [Peptide No. 5-3] and give its measured Relative % to native ligand.
Result block: 7120%

Query block: What does the data say about its Relative % to native ligand? Entry: Y[Aib]QGTFTSDYSKYLDYMMQRDFVQWLIEGGPSSGAPPPSC-NH2 (not fully specified (residue 40)) [Peptide No. 5-2A]
Result block: 3%

Query block: What Relative % to native ligand value was documented for this binder, Y[Aib]QGTFTSDYSK([AEEA-AEEA-γGlu-C18″])YLDYMMQRDFVQWLIEGGPSSGAPPPS-NH2 [Peptide No. 5-2D] ?
Result block: 93%

Below: the item to evaluate.
Query block: Fill in the blank: the reported Relative % to native ligand of H[Aib]QGTFTSDYSK([AEEA-AEEA-γGlu-C18″])LLDYMMQRDFVQWLLEGGPSSGAPPPS-NH2 [Peptide No. 5-5D] is ____.
Result block: 212%
